MEASUREMENT TARGET: chicken gizzard smooth muscle myosin subfragment-1 chemically crosslinked to cardiac or skeletal actin (Gallus gallus, UniProt P10587)
Construct: chicken gizzard smooth muscle myosin subfragment-1; from tissue; host or cells: chicken gizzard
Sequence (P02607 2-151): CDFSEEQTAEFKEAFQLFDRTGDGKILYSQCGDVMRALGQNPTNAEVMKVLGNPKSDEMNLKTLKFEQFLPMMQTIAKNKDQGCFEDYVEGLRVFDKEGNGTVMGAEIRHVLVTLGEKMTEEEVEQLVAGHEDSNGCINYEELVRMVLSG
Sequence (P10587 84-789): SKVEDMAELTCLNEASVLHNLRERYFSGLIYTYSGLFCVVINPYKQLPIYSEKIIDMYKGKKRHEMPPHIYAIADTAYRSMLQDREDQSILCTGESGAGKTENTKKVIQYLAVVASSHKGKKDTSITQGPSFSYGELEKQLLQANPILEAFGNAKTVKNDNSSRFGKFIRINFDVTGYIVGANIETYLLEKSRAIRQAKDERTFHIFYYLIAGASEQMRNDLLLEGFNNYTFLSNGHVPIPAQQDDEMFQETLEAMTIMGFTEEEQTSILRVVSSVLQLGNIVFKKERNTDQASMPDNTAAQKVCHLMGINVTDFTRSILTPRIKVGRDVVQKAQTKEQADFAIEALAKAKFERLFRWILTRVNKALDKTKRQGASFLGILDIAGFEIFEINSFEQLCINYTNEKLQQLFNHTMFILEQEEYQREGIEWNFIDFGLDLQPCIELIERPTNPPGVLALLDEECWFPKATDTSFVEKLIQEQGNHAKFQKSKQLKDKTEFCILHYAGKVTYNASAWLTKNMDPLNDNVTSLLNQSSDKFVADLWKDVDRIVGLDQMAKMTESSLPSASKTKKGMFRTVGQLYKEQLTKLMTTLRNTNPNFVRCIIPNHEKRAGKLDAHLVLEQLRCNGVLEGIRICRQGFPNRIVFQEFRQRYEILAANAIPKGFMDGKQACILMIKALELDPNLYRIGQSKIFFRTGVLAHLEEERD
ASSAY METHOD TEXT: Smooth muscle myosin ATPase dose response assay (pyruvate kinase/horseradish peroxidase/pyruvate oxidase-coupled, amplex red fluorescence)
Type: biochemical
CONDITION DESCRIPTION: read-out: IC50 Arithmetic Mean
EXPERIMENTAL READOUT: IC50 (nM)
Reply with just the number (in nM).

{"columns": ["STRUCTURE SMILES STRING", "IC50 (nM)"],
 "data": [
  ["CC(C)(C)OC(=O)NCc1ncccc1CNC(=O)c1ccc(-c2cnn(CCO)c2)nc1NCCc1cccc(F)c1", 15000],
  ["CC(C)(CNC(=O)c1ccc(-c2ccccc2C#N)nc1NCCc1cccc(F)c1)NC=O", 151],
  ["CC[C@@H](CO)CNC(=O)c1cc(F)c(-c2cn[nH]c2)nc1NCCc1cccc(F)c1", 52]
]}

Could you now consider this next compound?
Can you share its IC50? I mean this compound: N#Cc1ccccc1-c1ccc(C(=O)NCCCCCN)c(NCCc2cccc(F)c2)n1
154

----------
MEASUREMENT TARGET: chicken gizzard smooth muscle myosin subfragment-1 chemically crosslinked to cardiac or skeletal actin (Gallus gallus)
pIC50: −log10 of the molar value.
The threshold is inclusive: pIC50 of exactly 6 counts as t; values below receive f.

Example results:
{"columns": ["STRUCTURE SMILES STRING", "CATEGORY LABEL"],
 "data": [
  ["N#Cc1ccccc1-c1ccc(C(=O)NCc2cccnc2Cl)c(NCCc2cccc(F)c2)n1", "t"],
  ["O=C(NCc1ccc(-c2ccccc2)nc1NCCc1cccc(F)c1)Nc1cccnc1", "f"],
  ["O=C(NCc1cccnc1)c1ccc(-c2c(F)cccc2Cl)nc1NCCc1cccc(F)c1", "t"],
  ["CN(C)C(=O)CCNc1nc(-c2ccccc2C#N)ccc1C(=O)NC[C@H]1CCCN1C(=O)CCCN", "f"]
]}

Now for a further compound.
Quick check: does CN1CCCC[C@@H]1CNC(=O)c1ccc(-c2ccccc2C#N)nc1NCCc1cccc(F)c1 have pIC50 greater than or equal to 6?
t

----------
MEASUREMENT TARGET: chicken gizzard smooth muscle myosin subfragment-1 chemically crosslinked to cardiac or skeletal actin (Gallus gallus, UniProt P10587)
pIC50: −log10 of the molar value.
Reported pIC50 maps to class as: low class (below 6), middle class (6 to below 7), high class (7 or more)

Example results:
{"columns": ["STRUCTURE SMILES STRING", "CATEGORY LABEL"],
 "data": [
  ["CC(C)(C)OC(=O)NCCn1ccc(CNC(=O)c2ccc(-c3cc[nH]n3)nc2NCCc2cccc(F)c2)n1", "low class"],
  ["O=C(NC[C@H]1CCCN1)c1cc(F)c(-c2cn[nH]c2)nc1NCCc1cccc(F)c1", "middle class"],
  ["CC(C)(C)OC(=O)N1CC[C@@H]1CNC(=O)c1cc(F)c(-c2cn[nH]c2)nc1NCCc1cccc(F)c1", "middle class"]
]}

Now for a further compound.
Category of N#Cc1ccccc1-c1ccc(C(=O)NCc2cccnc2N)c(NCCc2cccc(F)c2)n1 , please.
high class

----------
MEASUREMENT TARGET: chicken gizzard smooth muscle myosin subfragment-1 chemically crosslinked to cardiac or skeletal actin (Gallus gallus, UniProt P10587)
EXPERIMENTAL READOUT: pIC50
# pIC50 is unitless: minus log10 of the molar concentration; print number only

Guide cases for pIC50, answers given:
{"columns": ["STRUCTURE SMILES STRING", "pIC50"],
 "data": [
  ["C[C@@H](CNC(=O)c1ccc(-c2ccccc2C#N)nc1NCCc1cccc(F)c1)NC(=O)CN", 5.84],
  ["CC(=O)[C@H](C)CNC(=O)c1cc(F)c(-c2cnn(C)c2)nc1NCCc1cccc(F)c1", 6.96]
]}

Could you now consider this next compound?
Can you share its pIC50? I mean this compound: CC(C)(C)OC(=O)NCCCC(=O)N1CCC[C@@H]1CNC(=O)c1cc(C#N)c(-c2cn[nH]c2)nc1NCCc1cccc(F)c1
5.47

----------
MEASUREMENT TARGET: chicken gizzard smooth muscle myosin subfragment-1 chemically crosslinked to cardiac or skeletal actin (Gallus gallus)
Each entry below lists one item and its recorded IC50 value.
Reply with just the number (in µM).

Guide cases for IC50, answers given:
{"columns": ["STRUCTURE SMILES STRING", "UNIT INFO", "IC50"],
 "data": [
  ["C[C@H](CNC(=O)c1cc(F)c(-c2cnn(C)c2)nc1NCCc1cccc(F)c1)C(N)=O", "µM", 0.089],
  ["N#Cc1ccccc1-c1ccc(C(=O)N[C@H](CCCN)C(N)=O)c(NCCc2cccc(F)c2)n1", "µM", 7.41]
]}

Can you share its IC50? I mean this compound: N#Cc1ccccc1-c1ccc(C(=O)NC[C@H]2CCCN2S(=O)(=O)CCN)c(NCCc2cccc(F)c2)n1
0.071

----------
MEASUREMENT TARGET: chicken gizzard smooth muscle myosin subfragment-1 chemically crosslinked to cardiac or skeletal actin (Gallus gallus, UniProt P10587)
Each entry below lists one item and its recorded IC50 value.
Reply with just the number (in nM).

Can you share its IC50? I mean this compound: CC1CN(C(=O)c2cc(F)c(-c3cnn(C)c3)nc2NCCc2cccc(F)c2)C1
10500

Also, NCc1cccc(CNC(=O)c2ccc(-c3cn[nH]c3)nc2NCCc2cccc(F)c2)n1 please.
121

Also, NCCCn1nccc1CNC(=O)c1ccc(-c2cn[nH]c2)nc1NCCc1cccc(F)c1 please.
95

----------
MEASUREMENT TARGET: chicken gizzard smooth muscle myosin subfragment-1 chemically crosslinked to cardiac or skeletal actin (Gallus gallus, UniProt P10587)
Please assign 0 whenever IC50 is at or above 500 nM, and 1 whenever it is below.

Example results:
{"columns": ["MOLECULE", "CATEGORY LABEL"],
 "data": [
  ["NCc1cccc(CCNC(=O)c2ccc(-c3ccccc3)nc2NCCc2cccc(F)c2)n1", 1],
  ["C[C@@H](NC(=O)c1ccc(-c2ccccc2C#N)nc1NCCc1cccc(F)c1)C(N)=O", 0],
  ["Cn1cc(-c2nc(NCCc3cccc(F)c3)c(C(=O)NCC(C)(C)CO)cc2F)cn1", 1],
  ["O=C(NCc1cccnc1)c1ccc(-c2ccsc2)nc1NCCc1ccccn1", 1]
]}

Is 500 nM strictly greater than the molecule's reported IC50? molecule: CS(=O)(=O)N1CC(=O)N[C@@H](CNC(=O)c2ccc(-c3ccccc3C#N)nc2NCCc2cccc(F)c2)C1 (stereo in doubt)
0

Also, CNC(=O)[C@H](CNC(=O)c1ccc(-c2ccccc2C#N)nc1NCCc1cccc(F)c1)NC(C)=O please.
0

----------
MEASUREMENT TARGET: chicken gizzard smooth muscle myosin subfragment-1 chemically crosslinked to cardiac or skeletal actin (Gallus gallus)
pIC50: −log10 of the molar value.
Reported pIC50 maps to class as: lower segment (below 5), middle segment (5 to below 6), upper segment (6 or more)

Example results:
{"columns": ["COMPOUND", "CATEGORY LABEL"],
 "data": [
  ["Cn1cc(-c2ccc(C(=O)NCC3CCN(CCCN)C3=O)c(NCCc3cccc(F)c3)n2)cn1 (stereo not shown)", "middle segment"],
  ["CN1CCN(CCCNC(=O)c2ccc(-c3ccccc3C#N)nc2NCCc2cccc(F)c2)CC1", "middle segment"],
  ["CNC(=O)c1ccc(-c2ccccc2)nc1NCCc1ccccc1", "lower segment"],
  ["Cn1cc(-c2nc(NCCc3cccc(F)c3)c(C(=O)NC[C@H]3CCCN3C(=O)CN)cc2F)cn1", "upper segment"],
  ["N#Cc1ccccc1-c1ccc(C(=O)NC[C@H]2CCCN2C(=O)CCCN)c(NCCc2ccccc2)n1", "upper segment"],
  ["O=C(NCc1cccnc1)c1ccc(-c2cccc(C(F)(F)F)c2)nc1NCCc1ccccn1", "middle segment"]
]}

Category of N#Cc1ccccc1-c1ccc(C(=O)NCCN2C(=O)CC[C@H]2CN)c(NCCc2cccc(F)c2)n1 , please.
lower segment

Also, O=C(NCc1cccnc1)c1cc(F)c(-c2cn[nH]c2)nc1NCCc1cccc(F)c1 please.
upper segment

----------
MEASUREMENT TARGET: chicken gizzard smooth muscle myosin subfragment-1 chemically crosslinked to cardiac or skeletal actin (Gallus gallus)
EXPERIMENTAL READOUT: pIC50
# pIC50 is unitless: minus log10 of the molar concentration; print number only

Guide cases for pIC50, answers given:
{"columns": ["STRUCTURE SMILES STRING", "pIC50"],
 "data": [
  ["N#Cc1ccccc1-c1ccc(C(=O)NCc2cccc(CN)c2)c(NCCc2cccc(F)c2)n1", 7.92],
  ["NCCn1ccc(CNC(=O)c2ccc(-c3cn[nH]c3)nc2NCCc2cccc(F)c2)n1", 5.83]
]}

Can you share its pIC50? I mean this compound: N#Cc1ccccc1-c1ccc(C(=O)NC[C@H]2CCC(=O)N2)c(NCCc2cccc(F)c2)n1
7.89

Also, N#Cc1ccccc1-c1ccc(C(=O)NC[C@@H]2CCC(=O)N2)c(NCCc2cccc(F)c2)n1 please.
6.88

Also, O=C(NCc1cccnc1)c1ccc(-c2ccc(F)cc2)nc1NCCc1cc(F)cc(F)c1 please.
6.86

Also, CNC(=O)[C@@H](C)NC(=O)c1ccc(-c2ccccc2C#N)nc1NCCc1cccc(F)c1 please.
5.90

Also, NCCCn1ccc(CNC(=O)c2ccc(-c3cc[nH]n3)nc2NCCc2cccc(F)c2)n1 please.
5.42
